meta.source: patent US12661410B2

Listed compounds paired with reported DC50
target.or.test.system: RET (658-1114) (Homo sapiens, UniProt P07949)
Construct: 658-1114; expressed in transfected cells; host or cells: 293T.144 (293T cells, generated in-house)
Sequence (P07949 658-1114): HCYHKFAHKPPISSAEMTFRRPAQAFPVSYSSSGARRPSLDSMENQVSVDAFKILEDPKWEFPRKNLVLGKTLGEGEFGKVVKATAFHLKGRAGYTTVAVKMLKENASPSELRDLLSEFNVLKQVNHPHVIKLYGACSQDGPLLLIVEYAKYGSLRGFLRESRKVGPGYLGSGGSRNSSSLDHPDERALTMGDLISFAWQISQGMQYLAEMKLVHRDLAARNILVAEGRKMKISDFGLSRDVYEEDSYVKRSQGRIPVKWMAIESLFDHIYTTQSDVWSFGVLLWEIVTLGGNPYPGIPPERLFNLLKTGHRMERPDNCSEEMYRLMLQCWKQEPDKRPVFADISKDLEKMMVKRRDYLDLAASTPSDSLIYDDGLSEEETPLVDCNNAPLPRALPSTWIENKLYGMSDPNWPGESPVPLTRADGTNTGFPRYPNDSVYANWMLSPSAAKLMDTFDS
assay: HiBiT-Degradation, RET wild-type degradation assay (Nano-Glo HiBiT Lytic), 293T.144 cells
Type: cell-based
protocol.conditions: HiBiT-Degradation, 6.0 hours, read-out: 293T.144 RET (658-1114) 6.0 hours (DC50)
property: DC50

* CCC1(C(=O)NC2CCOCC2)CCN(c2ccc(-c3cc(-c4cnn([C@H]5CC[C@H](CCN6CCC(c7ccc(NC8CCC(=O)NC8=O)cc7F)CC6)CC5)c4)cn4ncc(C#N)c34)cn2)CC1 (stereo partly drawn) | < 0.05 µM
* CCC1(C(=O)NC(C)C)CCN(c2ccc(-c3nc(-c4cnn(C5CCN(C(=O)CN6CCC(c7ccc(NC8CCC(=O)NC8=O)cc7)CC6)CC5)c4)cn4ncc(C#N)c34)cn2)CC1 (stereo not drawn) | < 0.05 µM
* CCC1(NC(=O)C(C)C)CCN(c2ccc(-c3cc(-c4cnn(C5CCN(C(=O)CN6CCC(c7ccc(NC8CCC(=O)NC8=O)cc7F)CC6)CC5)c4)cn4ncc(C#N)c34)cn2)CC1 (stereo not drawn) | < 0.05 µM
